B1: Hairpin Ribozyme (parent)
chain: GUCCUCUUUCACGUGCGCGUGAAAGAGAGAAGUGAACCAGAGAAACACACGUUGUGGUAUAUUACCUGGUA

# Variants of: B1
# assayExplanation: self-cleavage, relative activity (ratio to wild type); higher = more cleavage; co-transcriptional
reportedEndpoint: self-cleavage

[[record]]
variant = "A28U A39C"
recordedresult = 0.337

[[record]]
variant = "G51C U58G"
recordedresult = 0.433

[[record]]
variant = "C16U A30U"
recordedresult = 0.2

[[record]]
variant = "U7G U70C"
recordedresult = 0.838

[[record]]
variant = "C4A U55G"
recordedresult = 0.107

[[record]]
variant = "C3A G32U"
recordedresult = 0.0959

[[record]]
variant = "G34A C66A"
recordedresult = 0.469

[[record]]
variant = "C10A G32C"
recordedresult = 0.0945

[[record]]
variant = "G17A U20G"
recordedresult = 0.492

[[record]]
variant = "G27U C37A"
recordedresult = 0.108

[[record]]
variant = "G19U U58C"
recordedresult = 0.994

